- ASSAY_OVERVIEW: PK and tissue distribution after single oral administration in Ba/F3-EPOR-JAK2^V617F tumor-bearing mice
- Assay type: in vivo
- EXPERIMENTAL_CONDITIONS: BALB/c nude, mouse, intestine, oral, 30 mg/kg; single; 0.5 h; read-out: FM concentration, Intestine
ATTRIBUTE_MEASURED: concentration at 0.5 h (ng/g)
The answer is to be given in ng/g; state only the numeric part.

Req: Quick one: concentration at 0.5 h for Cc1cnc(Nc2ccc(N3CCC(N(C)CCO)CC3)c(F)c2)nc1-c1cnn(C(C)C)c1 [FM] ?
Resp: 14900

---

- ASSAY_OVERVIEW: PK and tissue distribution after single oral administration in Ba/F3-EPOR-JAK2^V617F tumor-bearing mice
- Format: in vivo
- EXPERIMENTAL_CONDITIONS: BALB/c nude, mouse, plasma, oral, 30 mg/kg; single; 1 h; read-out: FM concentration, Plasma
ATTRIBUTE_MEASURED: concentration at 1 h (ng/mL)
The answer is to be given in ng/mL; state only the numeric part.

Req: Quick one: concentration at 1 h for Cc1cnc(Nc2ccc(N3CCC(N(C)CCO)CC3)c(F)c2)nc1-c1cnn(C(C)C)c1 [FM] ?
Resp: 922

---

- ASSAY_OVERVIEW: PK and tissue distribution after repeated oral administration in Ba/F3-EPOR-JAK2^V617F tumor-bearing mice
- Assay type: in vivo
- EXPERIMENTAL_CONDITIONS: BALB/c nude, mouse, plasma, oral, 30 mg/kg; repeated; 2 h; read-out: FM concentration, Plasma
ATTRIBUTE_MEASURED: concentration at 2 h (ng/mL)
The answer is to be given in ng/mL; state only the numeric part.

Req: Quick one: concentration at 2 h for Cc1cnc(Nc2ccc(N3CCC(N(C)CCO)CC3)c(F)c2)nc1-c1cnn(C(C)C)c1 ?
Resp: 638

---

- ASSAY_OVERVIEW: PK and tissue distribution after repeated oral administration in Ba/F3-EPOR-JAK2^V617F tumor-bearing mice
- Assay type: in vivo
- EXPERIMENTAL_CONDITIONS: BALB/c nude, mouse, lung, oral, 30 mg/kg; repeated; 0 h; read-out: FM concentration, Lung
ATTRIBUTE_MEASURED: concentration at 0 h (ng/g)
The answer is to be given in ng/g; state only the numeric part.

Req: Quick one: concentration at 0 h for Cc1cnc(Nc2ccc(N3CCC(N(C)CCO)CC3)c(F)c2)nc1-c1cnn(C(C)C)c1 [FM] ?
Resp: 18.5

---

- ASSAY_OVERVIEW: PK and tissue distribution after repeated oral administration in Ba/F3-EPOR-JAK2^V617F tumor-bearing mice
- Format: in vivo
- EXPERIMENTAL_CONDITIONS: BALB/c nude, mouse, muscle, oral, 30 mg/kg; repeated; 0 h; read-out: FM concentration, Muscle
ATTRIBUTE_MEASURED: concentration at 0 h

Req: Quick one: concentration at 0 h for Cc1cnc(Nc2ccc(N3CCC(N(C)CCO)CC3)c(F)c2)nc1-c1cnn(C(C)C)c1 ?
Resp: 18.6 ng/g

---

- ASSAY_OVERVIEW: PK and tissue distribution after repeated oral administration in Ba/F3-EPOR-JAK2^V617F tumor-bearing mice
- Type: in vivo
- EXPERIMENTAL_CONDITIONS: BALB/c nude, mouse, kidney, oral, 30 mg/kg; repeated; 4 h; read-out: FM concentration, Kidney
ATTRIBUTE_MEASURED: concentration at 4 h (ng/g)
The answer is to be given in ng/g; state only the numeric part.

Req: Quick one: concentration at 4 h for Cc1cnc(Nc2ccc(N3CCC(N(C)CCO)CC3)c(F)c2)nc1-c1cnn(C(C)C)c1 ?
Resp: 4640
